# Lookup of reported IC50 keyed by entry
assay: Antioxidant activity assessed as DPPH radical scavenging activity after 30 mins under dark condition by spectrophotometric analysis; assay type: functional
Measured parameter: IC50 (µM)

Compound	Observed value
Cc1cc(NC(=O)CSc2nc3ccccc3c(=O)n2-c2ccc(S(N)(=O)=O)cc2)no1	82.4
NS(=O)(=O)c1ccc(-n2c(SCC(=O)NCCN3CCOCC3)nc3ccccc3c2=O)cc1	69.8
O=C1O[C@H]([C@@H](O)CO)C(O)=C1O [ASCORBIC ACID]	132
NS(=O)(=O)c1ccc(-n2c(SCC(=O)NN3CCOCC3)nc3ccccc3c2=O)cc1	66.4
CCOc1ccc2nc(NC(=O)CSc3nc4ccccc4c(=O)n3-c3ccc(S(N)(=O)=O)cc3)sc2c1	50.5
NS(=O)(=O)c1ccc(-n2c(SCC(=O)Nc3nc4ccc([N+](=O)[O-])cc4s3)nc3ccccc3c2=O)cc1	94.8
CCOC(=O)c1cccc(NC(=O)CSc2nc3ccccc3c(=O)n2-c2ccc(S(N)(=O)=O)cc2)c1	65.7
CN1C(=O)c2ccc(NC(=O)CSc3nc4ccccc4c(=O)n3-c3ccc(S(N)(=O)=O)cc3)cc2C1=O	48.5
Cn1c(NC(=O)CSc2nc3ccccc3c(=O)n2-c2ccc(S(N)(=O)=O)cc2)cc(=O)n(C)c1=O	56.4
CCOC(=O)N1CCC(NC(=O)CSc2nc3ccccc3c(=O)n2-c2ccc(S(N)(=O)=O)cc2)CC1	108
NS(=O)(=O)c1ccc(-n2c(SCC(=O)NC3CCN(Cc4ccccc4)CC3)nc3ccccc3c2=O)cc1	104
NS(=O)(=O)c1ccc(-n2c(SCC(=O)Nc3nnc(C(F)(F)F)s3)nc3ccccc3c2=O)cc1	107
NS(=O)(=O)c1ccc(-n2c(SCC(=O)Nc3c[nH]c(=O)[nH]c3=O)nc3ccccc3c2=O)cc1	54.4
CCOC(=O)c1ccccc1NC(=O)CSc1nc2ccccc2c(=O)n1-c1ccc(S(N)(=O)=O)cc1	89.5
NS(=O)(=O)c1ccc(-n2c(SCC(=O)Nc3cnccn3)nc3ccccc3c2=O)cc1	45.8
NS(=O)(=O)c1ccc(-n2c(SCC(=O)Nc3nccs3)nc3ccccc3c2=O)cc1	125
